Each recorded value in this set is attributed to PubChem BioAssay.

# z-score values compiled below
experiment: FRG1 promoter luciferase signal modulators, primary screen, FRG1 inhibition for FSHD, cell-based, C2C12 myotubes, firefly/Renilla luciferase, luminescence (AID 1084); settings: higher = more signal, called active from +8 up or from −8 down
Number only, no unit.

C#CCN(C/C=C/c1ccccc1)[C@H](CO[Si](C)(C)C(C)(C)C)c1ccccc1; -1.27
COc1ccc(C#Cc2ccc3c(c2)[C@]2(C(=O)N3)[C@H](C(=O)Nc3nc4ccccc4s3)[C@H]3C(=O)O[C@H](c4ccccc4)[C@H](c4ccccc4)N3[C@@H]2c2ccc(OCCO)cc2)cc1; 4.94
CN(C)CCCC[C@@H]1NC(=O)[C@@H]2C[C@H](C(=O)NCc3ccc(F)cc3)[C@H](c3ccc(O)cc3)N2C1=O; 0.254

Here is the next item to consider.
Asked: Return reported z-score; argument: CC(C)=CCN(C(=O)C#Cc1ccccc1)[C@H](CO)c1ccccc1
Given back: -5.11

---

# z-score values compiled below
experiment: P. aeruginosa biofilm formation inhibitors, primary screen, strain PAO1, LB-PBS medium, absorbance 600 nm (AID 1176); also: test concentration not given here; conditions: P. aeruginosa PAO1 growth/biofilm, A600, 12 h; higher = more signal
Activity calls are given as the source filed them. The rule behind the calls is not given here.

// known answers, use as guide
CN(C)C(=O)[C@@]1(CCS(=O)(=O)c2ccccc2)N=C(c2ccc(OCCCO)cc2)O[C@H]1c1ccccc1N=[N+]=[N-]; -0.0558 (inactive)
COc1cc2c(cc1O)C(c1ccc(CN3CCCC3)cc1)N(Cc1cccc(OC(F)(F)F)c1)CC2 (stereo not given); -0.103 (inactive)

Asked: Return reported z-score; argument: Cc1ccc(S[C@]2(C(=O)NC3CC3)CC(=O)N(Cc3cc(C(F)(F)F)cc(C(F)(F)F)c3)[C@@H]2c2ccc(CO)cc2I)cc1
Given back: 0.944 (inactive)

Asked: Return reported z-score; argument: CC(C)C[C@H]1NC(=O)[C@@H](C)NC(=O)[C@@]23C(=O)N[C@@H](Cc4ccccc4)C2[C@H](C)[C@@]2(C)O[C@H]2C3/C=C/C/C=C\CNC1=O (stereo not given in full)
Given back: 0.531 (inactive)

Asked: Return reported z-score; argument: O=C1c2ccccc2[C@@]2(Cc3ccccc3N(Cc3ccccc3)C2=O)[C@H](c2ccc(CO)cc2)N1Cc1ccccc1
Given back: 0.0714 (inactive)

Asked: Return reported z-score; argument: COC(=O)[C@@]1(CCC(=O)OC(C)(C)C)N=C(c2ccc(OCCCO)cc2)O[C@H]1c1ccccc1CN=[N+]=[N-]
Given back: 0.563 (inactive)

Asked: Return reported z-score; argument: COCCOC(=O)N1C(=O)[C@@]2(c3cc(C#CCC(C(=O)OC)C(=O)OC)ccc31)[C@H](c1ccc(OCCO)cc1)N1[C@H](c3ccccc3)[C@H](c3ccccc3)OC(=O)[C@H]1[C@@H]2C(=O)N1CCCCCCC1
Given back: 0.83 (inactive)

Asked: Return reported z-score; argument: CC1(C)OC[C@@]23C=C(Br)[C@@H](C[C@H]12)[C@@]1(CO1)C3=O
Given back: -0.0582 (inactive)

Asked: Return reported z-score; argument: [N-]=[N+]=NCc1ccccc1C[C@]1(C(=O)O)COC(c2ccc(OCCCO)cc2)=N1
Given back: 0.37 (inactive)

Asked: Return reported z-score; argument: N[C@@H](Cc1ccccc1)Cn1cc(C2(O)CCCCC2)nn1
Given back: 0.0672 (inactive)

Asked: Return reported z-score; argument: CC(C)C(=C=CC[C@@H](O)c1ccccc1OCCO)C[C@@H](O)c1cc(Cl)cc(Cl)c1O
Given back: 0.354 (inactive)

Asked: Return reported z-score; argument: C[N+](C)(C)CCCCCCNC(=O)[C@@H]1C[C@@H]2C(=O)N[C@@H](Cc3ccccc3)C(=O)N2[C@@H]1c1ccc(O)cc1
Given back: 0.615 (inactive)

Asked: Return reported z-score; argument: COCCOC(=O)N1C(=O)[C@@]2(c3cc(C#CC4=CCCCC4)ccc31)[C@H](C(=O)N1CCN(c3ncccn3)CC1)[C@H]1C(=O)O[C@H](c3ccccc3)[C@H](c3ccccc3)N1[C@@H]2c1ccccc1OCCO
Given back: 4.43 (inactive)

Asked: Return reported z-score; argument: CC(C)CNC(=O)[C@@H]1c2ccccc2C(=O)N(C(C)C)[C@H]1c1ccc(CO)cc1
Given back: 0.348 (inactive)

Asked: Return reported z-score; argument: CN1C(=O)C2C(C1=O)C1C=C(c3ccc(CO)cc3)C2C(c2cccs2)N1C (stereo not given)
Given back: -2.71 (inactive)
